Experiment notes: label from the status in PepcDB records
Measurement type: protein production

INSERT INTO results (sequence_string, measurement_type, reported_measurement) VALUES
  ('MRDGVSPEQPKVSVIMPVRDGERWVAEAIRSVQSQTFRDFELLVIDDGSADATPAILAEAAAADPRIFVLTQHRDGLVAGLNRGLAAARAPLIARLDADDIALPDRLARQVDYMTTHPAVVLLGGWATIVDENGQPKGRDMRPNPNDLRATLMKKSPFIHPTVMFRAEAARRVGGYHAAFEAGEDYDFWLRLADIGEVAILPELLIRYREHSASVTRTRQLRQIYSARLAKLAAAARQAGQPDPSAPLTTPPDWHDASPGPFERDSSRLFRMLELADPAVAARIAPSAIDLNAITSQLGTLTAGERKFAQAALLNLLRANKLPSLAARWSAVFLLVRLGPLKAIKAARQLRNR', 'protein production', 'failed'),
  ('MTLKLIGAGFGRTGTWSTFAALNRLGLPCYHMQEVIMNKANKGHLDFWRKVANSPPGSQHDWNRVFANYTATVDNPGCCVWKELLAAYPDAKVLLTLHPRGAEAWYESTIDTIYFTENVWQFKILEWLTPFGWKFGDMSRKLIWGRTLDGVMNDRAKAVARYNTYVEQVKAAVPPHKLLVYKVTEGWAPLCDFLGVALPNEPFPNLNDRETIKKIIRDIIKGSYIMLGLAIAAIVAVVAALWWWLG', 'protein production', 'failed');

----------
Experiment notes: label from the status in PepcDB records
Measurement type: protein production

INSERT INTO measurements (sequence_string, reported_measurement) VALUES
  ('MGSSHHHHHHSSGLVPRGSHMLLREVTREERKNFYTNEWKVKDIPDFIVKTLELREFGFDHSGEGPSDRKNQYTDIRDLEDYIRATAPYAVYSSVALYEKPQEMEGWLGTELVFDIDAKDLPLRRCEHEPGTVCPICLNDAKEIVRDTVIILREELGFNDIHIIYSGRGYHIRVLDEWALKLDSKSRERILSFVSASEIEDVEEFRKLLLNKRGWFVLNHGYPRAFRLRFGYFILRIKLPHLINAGIRKSIAKSILKSKEEIYEEFVRKAILAAFPQGVGIESLAKLFALSTRFSKSYFDGRVTVDLKRILRLPSTLHSKVGLIAKYVGTNERDVMRFNPFKHAVPKFRKEEVKVEYKKFLESLGT', 'not failed'),
  ('SRPRLSQLSVTDVTTSSLRLNWEAPPGAFDSFLLRFGVPSPSTLEPHPRPLLQRELMVPGTRHSAVLRDLRSGTLYSLTLYGLRGPHKADSIQGTARTL', 'not failed');

----------
Experiment notes: label from the status in PepcDB records
Measurement type: protein production

Some sequences with recorded protein production:
INSERT INTO assay_data (sequence_string, measurement_type, reported_measurement) VALUES
  ('MDDEGLPRFAGVVYDQEEGIDALVGDFVEGLLARKLRVGGLLQGREPDAEGVTRTVVRVIGKARRIVISQNLGRHSTACSIDSAAIAEAAVALRQALEERPALIVGNRFGHLELEGAGMSEEMLDILASGTPFLIPVARRFEEGWRRFTGDMGDLLDPRPAALTAWFEALAPVTALEHHHHHH', 'protein production', 'failed'),
  ('MIATLRSYLSADKRGLVGPAFLFLSLLASISDPFGGYGMTFLRRFLFWVLVLGVAGGIAFLSHRMVERHLSGAPLLGKDLLIVLLVTLSFTPSLWVLIFLFAAPSTGTAPDMWSMARYGTIFASGLIVLRRGVFGQSVPEEESLQPRIYKRLPEGFSEQILRLTVRDHSVDVVTDKGVHTIRSRFGDAIDEMVPISGHCTHRSHWVTDTAIESVERSGGKIHLRLSNGDLIPVSRKYRPALEEAGIV', 'protein production', 'failed'),
  ('GNNVSDADIRAIKHSERRLRNHFLPQSLFSHCGFEQAFNYKYLRIMRIAVHPQIQQQGIGAQFIHYIELLAKEQGVDFIGASFGVNPELLSFWLNAGFSTARIGFTKDKASGEHSALLIKGL', 'protein production', 'failed'),
  ('MGKMEPFRATGDGLFIMNEGNFQYGNATLSYYDPETKKVENEIFYRANAMKLGDVAQSMIVRDTIGWVVVNNSHVIFAISTNTFKEVGRITGLTSPRYIHFISDEKAYITQIWDYRIFIVNPKTYQITGYIECPDMTMETGSTEQMVQYGKYVYVNCWSYQNRILKIDTTTDKVVDQLTVGIQPTSLVMDKNFKMWTITDGGYKGSPYGYEEPSLYRIDAETFKIEKQFKFQLGDAPSEVQLNGAGDELYWINKDIWRMSVDEERVPVRPFLKYRDTKYYGLTVSPKNGDVYVADAIDYQQQGMIYRYTEDGELVDEFYVGIIPGAFCWKLEHHHHHH', 'protein production', 'not failed'),
  ('MNKHLKIQIMNIHSEREIYSARVLNAPIEIVYEAFANPSYLKNWWGPKGFTNTIHAFDLQPGGKWILTMHGPEKGNYENSSIFKIVEPQKLISWERKSKPLFDMEVEFKKLNNLQTEISFRMTFSTKEDCDKIRSFVEPQNEELRSIRKRNSEHKLIPTCIPRHPHWLVFQSRQ', 'protein production', 'failed');

// input: 2 sequences below; output: protein production for each
1. NVAYPLGEGLLSFAESLESQKIHFTTEVITSRIEPANRYVAEKLRITPGQDILYLERLRSIGDEKAMLIENRINIELCPGIVEIDFNQHNLFPTIESLSKRKIRYSESRYAARLIGNERGHFLDISEDAPVLHLEQLVFFSRELPVEFGNVWLKGNKYYLGTVLQRRELS
2. PEVGSSEHKLKIRNIKLSDYDDIFEIMESVYADIGGPWTKKELRSHLNHFPEGQICIEDNGKVIAAAFSLIVNYSNYGDKHTYQQITGDGLLTNHDPEGDTLYGIDIFVHPEFRGLRLGRRLYDARKELCEKLNLRAIIVGGRIPGYKNFAKKLTPRQYIEEVKKKEIFDPVLTFQLANDFHLRKIIQGYLPDDRDSKAYAALLEWKNALYEIEE

A)
not failed
failed

----------
Experiment notes: label from the status in PepcDB records
Measurement type: protein production

INSERT INTO results (sequence_string, reported_measurement) VALUES
  ('MAGNFWQSSHYLQWILDKQDLLKERQKDLKFLSEEEYWKLQIFFTNVIQALGEHLKLRQQVIATATVYFKRFYARYSLKSIDPVLMAPTCVFLASKVEEFGVVSNTRLIAAATSVLKTRFSYAFPKEFPYRMNHILECEFYLLELMDCCLIVYHPYRPLLQYVQDMGQEDMLLPLAWRIVNDTYRTDLCLLYPPFMIALACLHVACVVQQKDARQWFAELSVDMEKILEIIRVILKLYEQWKNFDERKEMATILSKMPKPKPPPNSEGEQGPNGSQNSSYSQS', 'not failed'),
  ('MPKVEIAPSEIKIPDNVLKAKLGFGGAEEIPEEFRKTVNRAYEELLDAAKPVVLWRDFEVDGSLSFDDMRLTGELATKHLSGSKIITVFLATLGKKVDEKIEEYFRKGEDLLAFFIDGIASEMVEYALRKVDAELRMKRSNLEGSFRISPGYGDLPLSLNKKIAEIFKEEVDVNVIEDSYVLVPRKTITAFVGWREKNEKQT', 'not failed');

----------
Experiment notes: label from the status in PepcDB records
Measurement type: protein production

Some sequences with recorded protein production:
INSERT INTO results (sequence_string, reported_measurement) VALUES
  ('MPKHEFSVDMTCGGCAEAVSRVLNKLGGVKYDIDLPNKKVCIESEHSMDTLLATLKKTGKTVSYLGLE', 'not failed'),
  ('MSAVTESVLESIISPVTMSEFLEEYWPVKPLVARGEVERFTSIPGFEKVRTLENVLAIYNNPVMVVGDAVIEESEGITDRFLVSPAEALEWYEKGAALEFDFTDLFIPQVRRWIEKLKAELRLPAGTSSKAIVYAAKNGGGFKAHFDAYTNLIFQIQGEKTWKLAKNENVSNPMQHYDLSEAPYYPDDLQSYWKGDPPKEDLPDAEIVNLTPGTMLYLPRGLWHSTKSDQATLALNITFGQPAWLDLMLAALRKKLISDNRFRELAVNHQSLHESSKSELNGYLESLIQTLSENAETLTPEQIFQSQDSDFDPYQSTQLVFRQLLTSYKF', 'not failed'),
  ('MKRRRRNSKLKFEETSDQSPTSTAEFSFSLTKIAVSQICQSIGYKATDASALNTLTLTTTKFLQSLAELASSFSNTANRTEVNLFDIVNGLQDIALSTSDCFPGGSTVHDIESQCLIKSAVLRNLSDFVTYAPEIPFAKPLPRRERDGSFGGDLDHVAVTRSVDVTSVPAWLPPFPDSSLCSDRCSKDNRSDHLWENSDSVIRREILPESLKSKSGGRLPVMRDKVRFKMEQRDWSSGGDTRLERSRDNNNGESGRDLEVKKKIREGYTYCAGEWPF', 'failed'),
  ('MTQDEWIDIPQGWSQGRTIYGGLVAGLLMHKALSVMNDESKNLLSTSITFVGPVNEGRVRLTVEILRQGKSVTTIEARLWQDQAVQTILIASFGQPRSLEHHHHHH', 'not failed');

// input: 6 sequences below; output: protein production for each
1. MFERFTEKAIKVITLAQEEARRLGYNFFGTEHILLSLIGEGTGIAAKVLKSMGINLKDARVEVEKIIGRGSGFVVVEIPFTPRKACAGFVTRGSSTTRHKGIAVRVLEILGADPSNIRTQVNAPILVNSQQALVAEVMETATWQVGNTRRGKLDPVVGRQPQIKRVVQILARRTCRNNACLIGKPGVGKRAIAEGIAQRIASGDVPETIKGKMNVAGNCGWNEIRWRSRGKIEEVYGQSDDIILFIDEMHLLIGAGAVEGAIDAANILKPALERCELQYRKHIENDPALERRFQPVKVPEPTVEEAIQITTVLAKGKEVNKADNEAEEGRPTVTEADNEAE
2. MKSADGLLHVAFTPSKATGKVLASELPEKVGKRSSVLYPASLKAGNDIGVPVQSVDTVLLQQALSAPVLSVASPSAVRAWLHLIQNEEQWSNYVACIGETTASAARRLGLKNVYYPEKPGLEGWVESIMEALGAHADSSNPSSRN
3. IVAGFTSIPSQGDNMPAYHARPKQSDGPLPVVIVVQEIFGVHEHIRDICRRLALEGYLAIAPELYFREGDPNDFADIPTLLSGLVAKVPDSQVLADLDHVASWASRNGGDVHRLMITGFCWGGRITWLYAAHNPQLKAAVAWYGKLTGDKSLNSPKQPVDIATDLNAPVLGLYGGQDNSIPQESVETMRQALRAANAKAEIIVYPDAGHAFNADYRPSYHAESAKDGWQRMLEWFTQY
4. MSVSIAYLAVLLIWSTTPLGIVWSSESINPSLAVLLRMLIALVLGALVIKIRNIHIPWHKQAVKLYSFSALGIFGGMLCSYLSAAYLSSGIISLVFGLSPVISALLAKKILSEPNISGMRKFSMAISLIGLAVVCSDNFTLADDGIYGIIFILMAVFFFSLSGVLVKSVSLAIHPLATTVGALSVATPLFLVSWLLLDGTLPIETWQAKSLWATLYLGVFGSLIGFYAYFTVLQKLSASNVTLITLITPVIALTLGAVLNGEVINDKLILGAFMVLLGLSIYHFGHLLPRLKKKRARS
5. MIDHRPTSWSRLCTALTSGASCTIGGQAVMEGVMMRNGDRLAIAMRRPDGEIVAESRPWFSLTRSAWLKRPFVRGFPILVETLVNGIKALNRSAEQAVEGETGEELKPWQLAATLAVSVAMALGLFVVVPHLFSIGMKLLGLGGDVEGLSFHMWDGFFKFAVFIGYIVAISFVPDIRRVFQYHGAEHKVIRAFEAAGDVTPDTAMHHSRLHPRCGTTFLLFVLSISIILHAVLVPLLMLVWTPSGAFAKHGVTVLFKLLLMIPISALAYETIRYAARLGEGLTGTLLRAPGMLLQKLTTGEPDREQLEVAIVALREALGDDAPQSVRAPAYRHLE
6. LPAHSWLGSFQAAGFDLVGQAWLPEQPSATLFLLHGYYDHMGLYRHVIEWALKQGFAVISCDLPGHGLSSGERASITDFAVYQQVLEALFEQAHTLQLPHPWHLCGQSTGGAIAVDHLLHQGARSPVDGQVILLAPLVRPSSWRWSKFSYCVLRHFVNGIERRFSENTNDPAFLPFLEADPLQPRRLPTAWVGALIAWVKRIEAAPRSARRPLIVQGEADGTVDWPHNLEVLKAKFAEPQILMLPEARHHLANELPGIRQRYFDFIDQRLG

A)
1: failed; 2: failed; 3: failed; 4: failed; 5: failed; 6: failed

// input: 2 sequences below; output: protein production for each
1. KSTVEKSTVGQKVAIVREDTGTIAELAEKALGNMVDIVYAGSDLKEAEEAVKKEKAPAIIVIPKGFSQSLESGEKARLEIVWYLRGTGLSEAVSTGTISSLIESLKVQLASFLLNDPKKAQLLFDPLEIVQHTYLRGSLFKNHSPEAIMNVFYSQN
2. MSSSTSQDFVSRPVIKKVFAKLQKEGDGAVVRRGISRSEQKLLDPFLMLDEFSVSPPAGFPDHPHRGITHQDFKGHKGTIYAGDVQWMTAGRGIIHSEMPEEEVNKEPNYQELSHSDIPKAEQNGVEVKVIAGESMGIQSPVYTRTPTMFLDFTLQPGAQIHQNVPESWNAFAYILESGEGGGVFSSSNSSPIPAHSVVVFGPGNDGVSVWNKSSSKQLRFVLIAGEPIGEPVVQYGPFVMNTQAEIDMTIEDYHYGKNGFEMAKYWRSQ

A)
not failed
failed
